- System: SARS2
- Assay type: cell-based, SARS-CoV-2
- Measurement context: SARS2, 25 μM
Recorded Percentage Inhibition Average 25 μM by entry
Experimental readout: Percentage Inhibition Average 25 μM

molecule=CN(C)CCN(Cc1ccccc1)Cc1cc(C#CCO)cs1 tested_on=SARS2 experimental_readout="Percentage Inhibition Average 25 μM" result_value=18.72%
molecule="COc1ccc(C2NC(=O)NC(C)=C2C(=O)NCC2CCC2)cc1OC (stereo not shown)" tested_on=SARS2 experimental_readout="Percentage Inhibition Average 25 μM" result_value=−30.68%
molecule="COc1ccc(CNCCc2ccccc2F)c(OCC(O)CN2CCN(C)CC2)c1 (racemic) [UMB18G]" tested_on=SARS2 experimental_readout="Percentage Inhibition Average 25 μM" result_value=93.14%
molecule=CCN(CC)CCN(Cc1cccs1)C(=O)c1cccs1 tested_on=SARS2 experimental_readout="Percentage Inhibition Average 25 μM" result_value=−13.76%
molecule="COc1ccc(C2NC(=O)NC(C)=C2C(=O)NCC2CCCCC2)cc1OC (stereo not shown)" tested_on=SARS2 experimental_readout="Percentage Inhibition Average 25 μM" result_value=−18.04%
molecule=Cc1cc(CN(CCN(C)C)Cc2ccncc2)sc1Br tested_on=SARS2 experimental_readout="Percentage Inhibition Average 25 μM" result_value=85.35%
molecule="CN1CCN(CC(O)COc2c(CNCCc3ccccc3F)cccc2C2CCCCC2)CC1 (stereo not shown)" tested_on=SARS2 experimental_readout="Percentage Inhibition Average 25 μM" result_value=81.29%
molecule=CCN(CC)CCN(Cc1ccccc1)Cc1ccc(C)o1 tested_on=SARS2 experimental_readout="Percentage Inhibition Average 25 μM" result_value=57.49%
molecule=COc1ccc(-c2[nH]ncc2C(=O)NCC2CCCCC2)cc1OC tested_on=SARS2 experimental_readout="Percentage Inhibition Average 25 μM" result_value=−20.98%
molecule=COC(=O)c1csc(CN(CCN(C)C)Cc2ccsc2)c1 tested_on=SARS2 experimental_readout="Percentage Inhibition Average 25 μM" result_value=25.34%
molecule="CCCCCCCCNC(=O)C1=C(C)NC(=O)NC1c1ccc(OC)c(OC)c1 (stereo not shown)" tested_on=SARS2 experimental_readout="Percentage Inhibition Average 25 μM" result_value=−33.09%
molecule="COc1ccc(CNCCc2ccccc2F)c(OCC(O)CN2CCOCC2)c1 (stereo not shown)" tested_on=SARS2 experimental_readout="Percentage Inhibition Average 25 μM" result_value=72.89%
molecule=Cc1cc(CN(CCN(C)C)Cc2ccco2)sc1Br tested_on=SARS2 experimental_readout="Percentage Inhibition Average 25 μM" result_value=68.41%
molecule=CCN(CC)CCN(Cc1ccccc1)Cc1ccccn1 tested_on=SARS2 experimental_readout="Percentage Inhibition Average 25 μM" result_value=24.68%
molecule=CN(C)CCN(Cc1ccsc1)Cc1cccc(-c2ccsc2)c1 tested_on=SARS2 experimental_readout="Percentage Inhibition Average 25 μM" result_value=91.37%
molecule="COc1ccc(CNCCc2ccccc2F)c(OCC(O)CN2CCN(C)CC2)c1 (stereo not shown) [SILCS46]" tested_on=SARS2 experimental_readout="Percentage Inhibition Average 25 μM" result_value=99.97%
molecule="COc1ccc(CNCCc2ccccc2F)c(OCC(O)CN2CCN(C)CC2)c1 (stereo not shown) [SILCS45]" tested_on=SARS2 experimental_readout="Percentage Inhibition Average 25 μM" result_value=101.28%
molecule=CCN(CC)CCN(Cc1ccccn1)C(=O)c1cccs1 tested_on=SARS2 experimental_readout="Percentage Inhibition Average 25 μM" result_value=−2.13%
molecule="COCC1=C(C(=O)NCC2CCC2)C(c2cccs2)NC(=O)N1 (stereo not shown)" tested_on=SARS2 experimental_readout="Percentage Inhibition Average 25 μM" result_value=2.27%
molecule=CCN(CC)CCN(Cc1ccc(C)o1)Cc1cccs1 tested_on=SARS2 experimental_readout="Percentage Inhibition Average 25 μM" result_value=64.96%
molecule="COc1ccc(CNCCc2ccccc2F)c(OCC(O)CN2CCN(C)CC2)c1 (racemic) [SILCS41]" tested_on=SARS2 experimental_readout="Percentage Inhibition Average 25 μM" result_value=97.07%
molecule=COc1ccc(-c2[nH]ncc2C(=O)NC2CCCCCC2)cc1OC tested_on=SARS2 experimental_readout="Percentage Inhibition Average 25 μM" result_value=1.46%

###

- System: Influenza virus
- Assay method text: organism not typed
- Type: cell-based, influenza A virus
- Measurement context: 50 μM; upper part of table (FIG. 5 data), plaque assay
Recorded Influenza virus titer, 50 μM by entry
Experimental readout: Influenza virus titer, 50 μM (PFU/virus/ml)

compound="COc1ccc(CNCC(F)(F)F)c(OCC(O)CN2CCN(C)CC2)c1 (stereo not drawn) [Compound 18-12]" reading_unit=PFU/virus/ml result_value=90000
compound="COc1ccc(CNCCc2ccccc2)c(OCC(O)CN2CCN(C)CC2)c1 (stereo not drawn) [Compound 18-6]" reading_unit=PFU/virus/ml result_value=1300
compound="COc1ccc(CNCCc2cccnc2)c(OCC(O)CN2CCCCCCC2)c1 (stereo not drawn) [Compound 18-9]" reading_unit=PFU/virus/ml result_value=20000

###

- Tested on: cells (nuclei count)
- Measurement context: average value over the 5 tested concentrations (1 to 50 uM)
Recorded Relative cell count to DMSO controls, Average (for correlation analysis) by entry
Experimental readout: Relative cell count to DMSO controls, Average (for correlation analysis)

compound="CN(C)CCCN(Cc1cccs1)C(=O)c1cccs1 [SILCS40]" result_value=95.35
compound="CN(C)CCN(Cc1ccccc1)Cc1cc(C#CCO)cs1 [SILCS5]" result_value=101.24
compound="CCN(CC)CCN(Cc1ccccn1)Cc1ccc(C)o1 [SILCS36]" result_value=83.14
compound="CCOc1cccc(CNCCc2ccccc2F)c1OCC(O)CN1CCN(C)CC1 (centres unmarked) [SILCS3]" result_value=113.83
compound="COc1ccc(C2NC(=O)NC(C)=C2C(=O)NCc2ccccc2)cc1OC (centres unmarked) [SILCS48]" result_value=104.46
compound="COc1ccc(-c2[nH]ncc2C(=O)NCC2CCCCC2)cc1OC [SILCS52]" result_value=94.96
compound="CCN(CC)CCN(Cc1ccccn1)C(=O)c1cccs1 [SILCS37]" result_value=102.96
compound="COc1ccc(CNCCc2ccccc2F)c(OCC(O)CN2CCN(C)CC2)c1 (racemic) [SILCS41]" result_value=120.35

###

- Test system: cells (nuclei count)
- Measurement context: 1 μM; toxicity data; 100=DMSO control
Experimental readout: Relative cell count to DMSO controls, Average 1 μM

molecule="CC1=C(C(=O)NCC2CCCCC2)C(c2cc(C)c(Br)s2)NC(=O)N1 (stereo not shown)" result_value=117.26
molecule="CC1=C(C(=O)NCC2CCCCC2)C(c2cccs2)NC(=O)N1 (stereo not shown)" result_value=130.04
molecule=COc1ccc(-c2[nH]ncc2C(=O)NCC2CCCCC2)cc1OC result_value=103.3
molecule="CC1=C(C(=O)NCC2CCC2)C(c2cccs2)NC(=O)N1 (stereo not shown)" result_value=112.47
molecule="CC1=C(C(=O)NCc2ccccc2)C(c2ccc(C)o2)NC(=O)N1 (stereo not shown)" result_value=114.56
molecule="COc1ccc(CNCCc2ccccc2F)c(OCC(O)CN2CCN(C)CC2)c1 (racemic) [SILCS41]" result_value=118.33
molecule="COc1ccc(CNCCc2ccccc2F)c(OCC(O)CN2CCN(C)CC2)c1 (stereo not shown) [SILCS46]" result_value=103.33
molecule="COc1ccc(C2NC(=O)NC(C)=C2C(=O)NC2CCCCCC2)cc1OC (stereo not shown)" result_value=115.37
molecule=CCN(CC)CCN(Cc1ccccc1)Cc1ccccn1 result_value=118.72
molecule=Cc1ccc(CN(CCN(C)C)Cc2cc(C#CCO)cs2)s1 result_value=98.82
molecule="COc1ccc(CNCCc2ccccc2F)c(OCC(O)CN2CCN(C)CC2)c1 (stereo not shown) [SILCS45]" result_value=116.96
molecule=CCN(CC)CCN(Cc1ccncc1)C(=O)c1cccs1 result_value=111.85
molecule=Cc1csc(CN(CCN(C)C)Cc2ccco2)c1 result_value=96.29
molecule="COc1ccc(CNCCc2ccccc2F)c(OCC(O)CN2CCCC2)c1 (racemic)" result_value=154.73
molecule=CN(C)CCN(Cc1ccsc1)Cc1ccco1 result_value=103.58
molecule=CCN(CC)CCN(Cc1ccccn1)Cc1ccc(C)o1 result_value=87.6
molecule=Cc1ccc(CN(CCN(C)C)Cc2ccc(CO)o2)s1 result_value=105.73
molecule="COc1ccc(CNCCc2ccccc2F)c(OCC(O)CN2CCN(C)CC2)c1 (racemic) [UMB18G]" result_value=123.37
molecule="CCOc1cccc(CNCCc2ccccc2F)c1OCC(O)CN1CCN(C)CC1 (stereo not shown)" result_value=114.7

###

- Test system: SARS2
- Assay type: cell-based, SARS-CoV-2
- Measurement context: SARS2, 1 μM
Recorded Percentage Inhibition Average 1 μM by entry
Experimental readout: Percentage Inhibition Average 1 μM (%)

compound=Cc1ccc(CN(CCN(C)C)Cc2ccc(CO)o2)s1 result_value=5.30
compound="COc1ccc(CNCCc2ccccc2F)c(OCC(O)CN2CCOCC2)c1 (stereo not drawn)" result_value=9.76
compound=CCN(CC)CCN(Cc1ccccn1)C(=O)c1cccs1 result_value=16.29
compound=COc1ccc(-c2[nH]ncc2C(=O)NCC2CCCCC2)cc1OC result_value=7.72
compound=Cc1ccc(CN(CCN(C)C)Cc2cc(C#CCO)cs2)s1 result_value=−22.42
compound="CC1=C(C(=O)NCc2ccccc2)C(c2scc3c2OCCO3)NC(=O)N1 (stereo not drawn)" result_value=−3.65
compound="COc1ccc(CNCCc2ccccc2F)c(OCC(O)CN2CCN(C)CC2)c1 (stereo not drawn) [SILCS45]" result_value=45.32
compound=CN(C)CCN(Cc1cocn1)Cc1cccs1 result_value=−2.77
compound=CN(C)CCN(Cc1ccccc1)Cc1cc(C#CCO)cs1 result_value=−11.97
compound=Cc1csc(CN(CCN(C)C)Cc2ccco2)c1 result_value=−6.20
compound=COC(=O)c1csc(CN(CCN(C)C)Cc2ccsc2)c1 result_value=2.92
compound=COc1ccc(-c2[nH]ncc2C(=O)NCC2CCC2)cc1OC result_value=0.61
compound=Cc1ccc(CN(CCN(C)C)Cc2ccc(C)s2)o1 result_value=6.07
compound="CN1CCN(CC(O)COc2c(CNCCc3ccccc3F)cccc2C2CCCCC2)CC1 (stereo not drawn)" result_value=17.51
compound=COc1ccc(-c2[nH]ncc2C(=O)NC2CCCCCC2)cc1OC result_value=20.62
